experimental-target: human PGD receptor (Homo sapiens, UniProt Q13258)
Sequence (Q13258 whole entry): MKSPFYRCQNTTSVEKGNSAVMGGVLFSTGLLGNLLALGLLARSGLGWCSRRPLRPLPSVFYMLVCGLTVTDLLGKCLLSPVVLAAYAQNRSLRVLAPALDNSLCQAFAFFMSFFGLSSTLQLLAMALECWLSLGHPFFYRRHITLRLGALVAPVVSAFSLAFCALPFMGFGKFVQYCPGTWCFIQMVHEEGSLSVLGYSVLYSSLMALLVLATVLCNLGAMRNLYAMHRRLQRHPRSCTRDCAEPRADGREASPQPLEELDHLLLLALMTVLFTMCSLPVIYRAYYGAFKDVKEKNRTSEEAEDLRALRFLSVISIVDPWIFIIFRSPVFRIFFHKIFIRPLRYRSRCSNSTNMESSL
measurement-description: cAMP antagonism test on the human prostaglandin D receptor (HTRF cAMP detection)
Format: cell-based
condition-context: selectivity towards hDP, IC50 measured by cAMP antagonism test
quantity-kind: Selectivity hEP2/hDP

Recorded Selectivity hEP2/hDP, per entry:
>  <molecule>
COc1ccc2c(c1)cc(C(=O)N1CCC(Cn3cc4c(C)c(C(=O)NCC(F)(F)F)ccc4n3)CC1)n2C [Example 293]

>  <Selectivity hEP2/hDP>
xxx (xxx > 100)

$$$$
>  <molecule>
COCCNC(=O)c1ccc2nn(CC3CCN(C(=O)c4ccc(OC(F)(F)F)c(F)c4)CC3)cc2c1OC [Example 272]

>  <Selectivity hEP2/hDP>
xxx (xxx > 100)

$$$$
>  <molecule>
Cc1c(C(=O)NCCOC(C)C)ccc2nn(CC3CCN(C(=O)c4ccc(C(F)(F)F)cc4)CC3)cc12 [Example 99]

>  <Selectivity hEP2/hDP>
xxx (xxx > 100)

$$$$
>  <molecule>
COc1ccc(-c2ccc(C(=O)N3CCC(Cn4cc5c(C)c(C(=O)NCC(F)(F)F)ccc5n4)CC3)cc2)nc1 [Example 326]

>  <Selectivity hEP2/hDP>
xx (xx: 10-100)

$$$$

State recorded Selectivity hEP2/hDP for all listed molecules.
1. Cc1c(C(=O)NCC(F)(F)F)ccc2nn(CC3CCN(C(=O)c4ccc(-c5cnc(C(F)(F)F)nc5)cc4)CC3)cc12 [Example 328]
2. Cc1c(C(=O)NCC2COCCO2)ccc2nn(CC3CN(C(=O)c4ccc(Cl)cc4)C3)cc12 (racemic) [Example 141]

["xx (xx: 10-100)", "xxx (xxx > 100)"]

Please state, for each entry, its recorded Selectivity hEP2/hDP.
1. COCCNC(=O)c1ccc2nn(CC3CCN(C(=O)c4ccc(S(F)(F)(F)(F)F)cc4)CC3)cc2c1OC [Example 268]
2. COCCNC(=O)c1ccc2nn(CC3CCN(C(=O)c4ccc(-c5ccc(F)cc5)cc4F)CC3)cc2c1C [Example 42]
3. COCCNC(=O)c1ccc2nn(CC3CN(C(=O)c4ccc(-c5ccc(F)cc5)cc4)C3)cc2c1C [Example 158]
4. [2H]C([2H])([2H])OC([2H])([2H])C([2H])([2H])NC(=O)c1ccc2nn(CC3CCN(C(=O)c4ccc(Oc5ccc(F)cc5)cc4)CC3)cc2c1C [Example 116]
5. Cc1c(C(=O)NCCSC(F)(F)F)ccc2nn(C[C@@H]3CCN(C(=O)c4ccc(OC(F)(F)F)cc4)C3)cc12 [Example 221]
6. Cc1c(C(=O)NCCCO)ccc2nn(CC3CCN(C(=O)c4ccc(-c5ccc(F)cc5)cc4)CC3)cc12 [Example 409]
7. COCCNC(=O)c1ccc2nn(CC3CN(C(=O)c4ccc(C(F)(F)F)c(F)c4)C3)cc2c1C [Example 122]

1. xxx (xxx > 100)
2. xxx (xxx > 100)
3. xxx (xxx > 100)
4. xxx (xxx > 100)
5. xx (xx: 10-100)
6. xxx (xxx > 100)
7. xxx (xxx > 100)

// Selectivity hEP2/hDP lookup, key: COCCNC(=O)c1ccc2nn(CC3CCN(C(=O)c4ccc(C(F)F)cc4)CC3)cc2c1C [Example 32] xxx (xxx > 100)
